Target: T1, GAL4 activation domain fusion (ACT) to HAB1 (UniProt Q9CAJ0 23-511, limits assumed)
T1 construct: pACT-HAB1 fusion in yeast reporter strains; also called pACT-HAB1
T1 sequence (looked up): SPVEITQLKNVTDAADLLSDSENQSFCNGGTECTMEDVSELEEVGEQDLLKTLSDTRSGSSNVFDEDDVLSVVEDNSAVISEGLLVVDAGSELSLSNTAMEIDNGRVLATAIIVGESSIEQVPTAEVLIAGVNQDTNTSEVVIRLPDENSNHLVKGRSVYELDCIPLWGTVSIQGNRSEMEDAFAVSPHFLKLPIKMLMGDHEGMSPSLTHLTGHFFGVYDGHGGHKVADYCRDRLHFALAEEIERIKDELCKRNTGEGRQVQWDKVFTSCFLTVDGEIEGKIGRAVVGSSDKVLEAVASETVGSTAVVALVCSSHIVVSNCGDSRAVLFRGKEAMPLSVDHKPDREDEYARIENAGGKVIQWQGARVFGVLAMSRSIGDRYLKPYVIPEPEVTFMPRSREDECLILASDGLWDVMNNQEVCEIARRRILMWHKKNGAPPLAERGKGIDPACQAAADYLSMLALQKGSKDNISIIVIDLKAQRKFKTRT
Assay: yeast two-hybrid, X-gal; lowest mandipropamid concentration giving signal
Give Threshold for every item shown.
One number for each entry, in µM.

Sample answers from the record:
PYR1^Y58H,K59R,V81I,F108A,S122G,V164I (receptor, not shown: small tags and cut ends, pBD-PYR1 fusion in yeast) MPSELTPEERSELKNSIAEFHTYQLDPGSCSSLHAQRIHAPPELVWSIVRRFDKPQTHRHFIKSCSVEQNFEMRVGCTRDIIVISGLPANTSTERLDILDDERRVTGASIIGGEHRLTNYKGVTTVHRFEKENRIWTVVLESYVVDMPEGNSEDDTRMFADTVIKLNLQKLATVAEAMARNSGDGSGSQVT | 0.01
PYR1^K59R,F108A (receptor, not shown: small tags and cut ends, pBD-PYR1 fusion in yeast) MPSELTPEERSELKNSIAEFHTYQLDPGSCSSLHAQRIHAPPELVWSIVRRFDKPQTYRHFIKSCSVEQNFEMRVGCTRDVIVISGLPANTSTERLDILDDERRVTGASIIGGEHRLTNYKSVTTVHRFEKENRIWTVVLESYVVDMPEGNSEDDTRMFADTVVKLNLQKLATVAEAMARNSGDGSGSQVT | 100
PYR1^K59R,F108A,S122G,F159V (receptor, pBD-PYR1 fusion in yeast) MPSELTPEERSELKNSIAEFHTYQLDPGSCSSLHAQRIHAPPELVWSIVRRFDKPQTYRHFIKSCSVEQNFEMRVGCTRDVIVISGLPANTSTERLDILDDERRVTGASIIGGEHRLTNYKGVTTVHRFEKENRIWTVVLESYVVDMPEGNSEDDTRMVADTVVKLNLQKLATVAEAMARNSGDGSGSQVT | 0.25
PYR1^Y58H,K59R,F108A,S122G (receptor, pBD-PYR1 fusion in yeast) MPSELTPEERSELKNSIAEFHTYQLDPGSCSSLHAQRIHAPPELVWSIVRRFDKPQTHRHFIKSCSVEQNFEMRVGCTRDVIVISGLPANTSTERLDILDDERRVTGASIIGGEHRLTNYKGVTTVHRFEKENRIWTVVLESYVVDMPEGNSEDDTRMFADTVVKLNLQKLATVAEAMARNSGDGSGSQVT | 0.25
PYR1^Y58H,K59R,V83L,F108A,S122G (receptor, not shown: small tags and cut ends, pBD-PYR1 fusion in yeast) MPSELTPEERSELKNSIAEFHTYQLDPGSCSSLHAQRIHAPPELVWSIVRRFDKPQTHRHFIKSCSVEQNFEMRVGCTRDVILISGLPANTSTERLDILDDERRVTGASIIGGEHRLTNYKGVTTVHRFEKENRIWTVVLESYVVDMPEGNSEDDTRMFADTVVKLNLQKLATVAEAMARNSGDGSGSQVT | 0.01

Here is another binder to look at.
Entry PYR1^Y58H,K59R,V81I,F108A,S122G,F159L (receptor, not shown: small tags and cut ends, pBD-PYR1 fusion in yeast; also called PYR1^MANDI; pBD-PYR1^MANDI) MPSELTPEERSELKNSIAEFHTYQLDPGSCSSLHAQRIHAPPELVWSIVRRFDKPQTHRHFIKSCSVEQNFEMRVGCTRDIIVISGLPANTSTERLDILDDERRVTGASIIGGEHRLTNYKGVTTVHRFEKENRIWTVVLESYVVDMPEGNSEDDTRMLADTVVKLNLQKLATVAEAMARNSGDGSGSQVT ; Threshold = 0.002
